Every entry's value here was drawn from PubChem BioAssay (NCI).

System: RXF 393 renal
Test: NCI tumour cell line growth inhibition, 48 h
Kindly supply the reported TGI values for the records listed here.

Q: Please look up its TGI: OCC1OC(n2cnc3c(Cl)nc(Cl)cc32)C(O)C1O (stereo unspecified)
Result: > 100 µM

Q: What does the record list as TGI for CN1Cc2cc3c(cc2-c2ccccc21)OCO3 ?
Result: > 100 µM

Q: Record request: TGI value, item O=C1OC(c2ccccc2)(c2cc(Br)c(O)c(Br)c2)c2ccccc21 (stereo unspecified)
Result: 36.4 µM

Q: Give the measured TGI of N#CS.N=C=S.N=C=S.[Cu+2].[NH2-].[NH2-].[NH2-].[NH2-].c1ccc2ncccc2c1 .
Result: 44 µM

Q: TGI for O=[N+]([O-])c1c(C=Nc2ccccc2)oc(-c2ccc3c(c2)OCO3)c1-c1ccc2c(c1)OCO2 ?
Result: > 100 µM

Q: Field request: TGI | item: CN1CC[C@]2(c3cccc(O)c3)CC(=O)/C(=C/c3ccc(Cl)c(Cl)c3)[C@@H]1C2
Result: 1.92 µM

Q: Look up TGI: CC1=C[P+](Cc2ccccc2)(c2ccccc2)CC1 (stereo unspecified)
Result: > 100 µM

Q: // lookup TGI for COc1cc(OC)c(NC(=O)c2cc3ccccc3cc2O)cc1Cl
Result: 8.51 µM

Q: Entry Cc1cc(Oc2ccc3nc(COc4ccc(CC5SC(=O)NC5=O)cc4)n(C)c3c2)cc(C)c1N (stereo unspecified) : reported TGI = ?
Result: > 100 µM

Q: Reported TGI, compound Clc1cc2n[se]nc2cc1Cl : ____
Result: > 100 µM

Q: # query: TGI of entry SC1CCCN(Cc2ccccc2)C1 (stereo unspecified)
Result: > 100 µM

Q: Which value of TGI has been reported for COc1cc(Nc2nc3ccc(C(F)(F)F)cc3nc2C(=O)O)cc(OC)c1OC in the records?
Result: 54 µM

Q: // returns reported TGI for input O=C1OCc2cc3cc4c(cc3c(-c3ccc5c(c3)OCO5)c21)OCO4 (tested in a mixture with another compound)
Result: 22.5 µM

Q: Sample CC(C)(C)OC(=O)C1CC[C@@H](CC(=O)Oc2ccc([N+](=O)[O-])cc2)N1 (stereo partly specified) — what was its TGI?
Result: > 100 µM

Q: Query (compound): O=C1OC2CC=CC1C2 (stereo unspecified) ; field requested: TGI
Result: > 100 µM

Q: Which TGI reading was recorded for the compound C/C(=C\COc1c2c(cc3c1CCO3)OC1(C=C2)OC(CC/C(C)=C/COc2c3ccoc3cc3oc(=O)ccc23)C(C)(C)O1)CCC(O)C(C)(C)O (stereo unspecified) ?
Result: > 100 µM

Q: Can you look up the measured TGI of Cc1ccc(-c2nc(N3CCCNCC3)c3oc(-c4ccccc4)nc3n2)cc1 for me?
Result: 3.29 µM

Q: Tell me the measured TGI of COC(=O)CSC(=S)Nc1nnc(NC(=S)SCOC(C)=O)n1C(=S)SCC(=O)OC , please.
Result: > 100 µM

Q: Would you mind telling me what TGI value was observed for Cc1cc(C)nc(SCCc2cccc[n+]2C)n1 ?
Result: > 100 µM

Q: Can you look up the measured TGI of Cc1ccc2c(=O)cc(-c3ccsc3)[nH]c2n1 for me?
Result: > 31 µM

Q: Any idea what TGI was measured for O=c1[nH]c(-n2[nH]c3c(c2=O)CCCC3)nc(O)c1-c1ccccc1 ?
Result: > 100 µM

Q: # lookup: TGI of CC(=O)NNC(=O)C1CCCCN1 (stereo unspecified)
Result: > 100 µM

Q: Any idea what its TGI is? The compound is Cc1nn(-c2nc3ccccc3s2)c2c1C(=O)c1ccccc1-2
Result: > 100 µM

Q: Could you share which TGI value was measured for CC(=O)C1(N=Nc2ccc(S(N)(=O)=O)cc2)CCOC1=O (stereo unspecified) ?
Result: > 100 µM

Q: Query: TGI; subject: CCCCCCc1nc2nc(Cl)c(Cl)nc2[nH]1
Result: > 100 µM

Q: Param item = CCCCCCCC(=O)OCC1OC(OC)C(NC(=O)N(CCCl)N=O)C(O)C1O (stereo unspecified) ; retrieve measured TGI.
Result: 34.3 µM

Q: Any idea what its TGI is? The compound is CCCCCCCCCCCCCCCCOCC(CCl)OP(=O)(O)OP(=O)(O)OCC1OC(n2ccc(N)nc2=O)C(O)C1O (stereo unspecified)
Result: > 100 µM

Q: Give its TGI value. Item: CC(O)C1(CNc2cc(Cl)nc(N)n2)CC(CCc2ccccc2)C1 (stereo unspecified)
Result: 30.8 µM

Q: I have this compound here, Cc1ccc(C)c2c1CC(Cc1ccccc1C(=O)O)C2=O (stereo unspecified) , and I need its recorded TGI.
Result: > 100 µM

Q: Bench note: what TGI did CN(C)/C=N/NC(=O)/C(C#N)=C/N(C)C show?
Result: > 100 µM

Q: Which value of TGI has been reported for O=C1C(Cl)C(c2cc3cc(Br)ccc3nc2Cl)N1c1ccc(Cl)cc1 (stereo unspecified) in the records?
Result: 10.6 µM

Q: Using the record for Cc1cc(-c2nc3ccc(F)cc3s2)ccc1N , report its TGI.
Result: > 100 µM

Q: May I ask what TGI has been recorded for COc1ccc(C=C(c2ccc(OCc3ccccc3)cc2)c2ccc(OCc3ccccc3)cc2)cc1 ?
Result: > 100 µM

Q: For the compound shown here, COc1cccc(Cc2cc(=O)c3ccc(C)nc3[nH]2)c1 , give the reported TGI.
Result: > 100 µM

Q: Given the entry Cc1nc2c(o1)C(=O)c1ccccc1C2=Nc1ccc(N2CCOCC2)cc1 , report its measured TGI.
Result: 2.97 µM

Q: What value of TGI has been reported for the following compound? S=c1nc(Cl)cc2[nH]c(Cl)cn12
Result: > 100 µM

Q: Could you tell me which TGI is on file for Cc1nc(C(N)=S)sc1C(=O)CC(=O)C(=O)Nc1nc2ccccc2[nH]1 ?
Result: > 100 µM

Q: Report TGI for O=C(/C=C/c1ccccc1)N1CCCCC1 please.
Result: > 100 µM

Q: What value of measured TGI is listed for CCOC(=O)C(C)(C)C(O)C(C)C (stereo unspecified) ?
Result: > 100 µM

Q: Need TGI, item CCOC(=O)/C(C#N)=C1/C(O)=C(C(=O)OC)C(C(=O)OC)=C1C(=O)OC
Result: > 100 µM

Q: // TGI lookup, key: CCCCN(CCCC)CCCn1c(=O)c2c3ccccc3n(C)c2n2nnc(-c3ccccc3)c12
Result: 43 µM
